Data origin: PubChem BioAssay (Tox21)

- protocol-description: qHTS assay for small molecule agonists of the p53 signaling pathway - cell viability (AID 651633); note: nearly all actives have a fitted effect of over 30% in size
- condition-parameters: p53RE-bla HCT-116 viability, ATP luminescence, 16 h; series mostly up to 83.3 µM
Inconclusive results are not listed. The source made the active and inactive calls. Calls come from the whole dose curve.
The categories you may choose from are true = active, false = inactive

{"molecule": "C=C(Nc1ccc(OCC)cc1)Nc1ccc(OCC)cc1", "label-class": "false"}
{"molecule": "CN(C)CCC(O)(c1ccccc1)c1ccccc1Cl (configuration not stated)", "label-class": "false"}
{"molecule": "CC(=O)OCC(=O)[C@@]1(O)CC[C@H]2[C@@H]3CCC4=CC(=O)CC[C@]4(C)C3=CC[C@@]21C", "label-class": "false"}
{"molecule": "CN(C/C=C/c1ccccc1)Cc1cccc2ccccc12", "label-class": "false"}
{"molecule": "COc1ccc(/C=C/C(=O)O)cc1", "label-class": "false"}

Could you kindly confirm the outcome this assay logged for `O=C1OC(=O)c2cc(-c3ccc4c(c3)C(=O)OC4=O)ccc21` ?
false

Hi, do you know how `CCCCCCCCCCCC[n+]1ccc2ccccc2c1` came out in this test?
true

Any idea what this test logged for `CCN(CC)C(=O)[C@]1(c2ccccc2)C[C@@H]1CN` ?
false

So what was the verdict on `Nc1cc(Cl)c(NC2=NCCN2)c(Cl)c1` in this test?
false

Could you kindly confirm the outcome this assay logged for O=C1OC(O)C(C(Cl)Cl)=C1Cl (configuration not stated) ?
true

Would you mind telling me which call this test gave `O=C(O)/C=C/C(=O)Nc1ccc(S(=O)(=O)Nc2nccs2)cc1` ?
false

Which outcome did this test record for the molecule `C=C1[C@@H]2CC[C@@H](C2)C1(C)C` ?
false
